TESTED_ON: NADPH oxidase 5 (Homo sapiens) (UniProt Q96PH1)
Sequence (Q96PH1 whole entry, looked up): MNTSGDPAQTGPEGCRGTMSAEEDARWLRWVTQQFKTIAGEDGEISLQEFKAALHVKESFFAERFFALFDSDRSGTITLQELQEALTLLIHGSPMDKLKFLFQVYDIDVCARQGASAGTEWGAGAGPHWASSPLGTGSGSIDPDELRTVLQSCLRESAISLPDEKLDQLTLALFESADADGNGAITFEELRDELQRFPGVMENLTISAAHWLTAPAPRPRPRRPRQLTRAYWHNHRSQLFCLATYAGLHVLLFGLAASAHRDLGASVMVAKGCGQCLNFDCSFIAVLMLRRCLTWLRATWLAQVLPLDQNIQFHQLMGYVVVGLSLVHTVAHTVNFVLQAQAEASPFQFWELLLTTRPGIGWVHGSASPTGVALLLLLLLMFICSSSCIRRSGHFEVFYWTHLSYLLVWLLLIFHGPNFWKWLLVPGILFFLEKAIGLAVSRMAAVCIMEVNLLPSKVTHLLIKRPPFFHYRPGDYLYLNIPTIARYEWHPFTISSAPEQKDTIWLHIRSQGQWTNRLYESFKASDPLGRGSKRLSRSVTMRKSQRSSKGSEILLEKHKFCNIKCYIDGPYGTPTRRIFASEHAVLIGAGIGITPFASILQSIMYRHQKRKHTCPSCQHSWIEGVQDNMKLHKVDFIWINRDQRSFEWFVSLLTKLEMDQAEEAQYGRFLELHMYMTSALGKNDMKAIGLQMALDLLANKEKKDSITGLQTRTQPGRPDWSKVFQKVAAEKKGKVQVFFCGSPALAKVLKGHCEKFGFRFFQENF
MEASUREMENT_PROTOCOL: compounds shifting NOX5 Amplex Red fluorescence – cell-based, HEK293-NOX5, NOX inhibitor project, primary screen (AID 1161)
STATED_CONDITIONS: HEK293-NOX5, ionomycin, 45 min, higher = more signal
Parameter threshold = 0.7. Response is Yes when z-score meets or exceeds it, else No.

[[record]]
item_smiles = "COC(=O)[C@]1(Cc2ccccc2CN=[N+]=[N-])N=C(c2ccc(OCCCO)cc2)O[C@@H]1c1ccccc1CN=[N+]=[N-]"
class_name = "No"

[[record]]
item_smiles = "COCCCNC(=O)[C@@]1(Cc2ccccc2N=[N+]=[N-])N=C(c2ccc(OCCCO)cc2)O[C@H]1c1ccccc1CN=[N+]=[N-]"
class_name = "No"

[[record]]
item_smiles = "COC(=O)[C@@]1(Cc2ccc(F)cc2)[C@@H]2[C@@H](CC(=O)[C@H]2CC(=O)C(=O)N2CCCC2)CN1C(=O)c1ccccc1"
class_name = "Yes"

[[record]]
item_smiles = "COCC1=C([C@H](O)CCc2ccccc2)[C@H](CO)[C@@H]2C(=O)N(C)C(=O)[C@@H]2C1"
class_name = "No"

[[record]]
item_smiles = "CC(C)(C)OC(=O)CC[C@]1(C(=O)N2CCCCC2)N=C(c2ccc(OCCCO)cc2)O[C@H]1c1ccccc1CN=[N+]=[N-]"
class_name = "Yes"

[[record]]
item_smiles = "CCOC(=O)C1=CC[C@@H](c2cccc(Br)c2)N(S(=O)(=O)c2ccc(C)cc2)[C@H]1c1ccc([N+](=O)[O-])cc1"
class_name = "No"


The values you see were collected from PubChem BioAssay.
